Tested on: HTT mRNA
Experiment: Splicing assay (RT-qPCR) monitoring HTT splice variants, canonical (CJ) and alternative (AJ) junction
Format: cell-based
Details: increase in AJ mRNA, 50% response, A673 or K562 cell line, 24 hours
Structures can show the parent of a compound that is named as a salt.
Entries and their measured AC50 follow.

Worked cases, answers included:
molecule=Cn1cc2cc(-c3cc4nn(C5CCNCC5)cc4s3)cc(F)c2n1 recorded_endpoint=AC50 experimental_result="100 to 1000 nM"
molecule=c1n[nH]cc1-n1cc2sc(C3CCNCC3)cc2n1 recorded_endpoint=AC50 experimental_result="> 10000 nM"
molecule=Cn1cc2cc(-c3cc4cn([C@@H]5CCNC[C@H]5F)nc4s3)cc(F)c2n1 recorded_endpoint=AC50 experimental_result="< 100 nM"

query: So what AC50 did Cc1cc(-c2cc3cn(C4CCNCC4)nc3s2)cc2cn(C)nc12 get with HTT mRNA?
result: < 100 nM

query: So what AC50 did Cn1cc2cc(-c3nc4sc(N5CCC56CCCNC6)cc4s3)cc(F)c2n1 (stereo not drawn) get with HTT mRNA?
result: > 10000 nM

query: So what AC50 did Cn1cc2cc(-c3cc4cn([C@H]5CCNC[C@H]5F)nc4s3)cc(F)c2n1 (stereo in doubt) get with HTT mRNA?
result: 100 to 1000 nM

query: So what AC50 did CN1CCC(N(C)c2cc3sc(-c4cc(F)c5nn(C)cc5c4)nc3s2)CC1 get with HTT mRNA?
result: > 10000 nM

query: So what AC50 did Cn1cc2cc(-c3cc4cn(C5CCNCC5)nc4s3)cc(F)c2n1 get with HTT mRNA?
result: 100 to 1000 nM

query: So what AC50 did Cc1nc2c(F)cc(-c3nc4sc(C5CCNCC5)cc4s3)cc2s1 [Compound 126, hydrochloride] get with HTT mRNA?
result: 100 to 1000 nM

query: So what AC50 did Cn1cc2cc(-c3nc4sc(N5CCNC6(CC6)C5)cc4s3)cc(F)c2n1 get with HTT mRNA?
result: > 10000 nM

query: So what AC50 did Cc1cn2nc(-c3nc4sc(C5CCNCC5)cc4s3)cc2c(C)n1 get with HTT mRNA?
result: 100 to 1000 nM

* * *

System: HTT mRNA
Experiment: Splicing assay (RT-qPCR) monitoring HTT splice variants, canonical (CJ) and alternative (AJ) junction
Format: cell-based
Conditions: decrease in CJ mRNA, 50% response, A673 or K562 cell line, 24 hours
pIC50: −log10 of the molar value. Where a name gives a salt, the structure may show the parent alone.
recorded endpoint: pIC50

Worked cases, answers included:
compound=Cn1cc2c(F)cc(-c3nc4sc(C5CCNCC5)cc4s3)cc2n1 recorded_endpoint=pIC50 experimental_result="5.00 to 6.00"
compound=Cn1cc2cc(-c3nc4sc(N5CCNCC5)cc4s3)cc(F)c2n1 recorded_endpoint=pIC50 experimental_result="6.00 to 7.00"
compound=Cc1cn2cc(-n3cc4sc(C5CCNCC5)cc4n3)cc(Cl)c2n1 recorded_endpoint=pIC50 experimental_result="6.00 to 7.00"
compound=Cc1nc2c(F)cc(-n3cc4sc(C5CCNCC5)cc4n3)cc2s1 recorded_endpoint=pIC50 experimental_result="5.00 to 6.00"
compound="Cc1nc2c(F)cc(-c3nc4sc(C5CCNCC5)cc4s3)cc2s1 [Compound 126, hydrochloride]" recorded_endpoint=pIC50 experimental_result="6.00 to 7.00"

query: So what does the record say about pIC50 for CN1CCC2(CC1)CCN2c1cc2sc(-c3cc(F)c4nn(C)cc4c3)nc2s1 ?
result: 5.00 to 6.00

query: So what does the record say about pIC50 for Cc1cc(-c2nc3sc(C4CCNCC4)cc3s2)cc2cn(C)nc12 ?
result: > 7.00

query: So what does the record say about pIC50 for Cn1cc2cc(-c3nc4sc(N5CCNC(C)(C)C5)cc4s3)cc(F)c2n1 ?
result: 6.00 to 7.00

query: So what does the record say about pIC50 for Cc1cn2cc(-c3nc4sc(C5CCNCC5)cc4s3)cc(F)c2n1 [Compound 130, hydrochloride] ?
result: > 7.00

query: So what does the record say about pIC50 for Cn1cc2cc(-c3cc4cn(C5CNC5)nc4s3)cc(F)c2n1 ?
result: 5.00 to 6.00

query: So what does the record say about pIC50 for Cc1cn2nc(-c3nc4sc(C5=CCOCC5)cc4s3)cc(C)c2n1 ?
result: 6.00 to 7.00

query: So what does the record say about pIC50 for Cn1cc2cc(-c3cc4cn(C5CCNCC5)nc4s3)c(C#N)cc2n1 ?
result: 5.00 to 6.00

query: So what does the record say about pIC50 for Cc1cn2cc(-n3cc4sc(C5CCNCC5)cc4n3)cc(C)c2n1 ?
result: 5.00 to 6.00

query: So what does the record say about pIC50 for COc1c(-c2cc3cn(C4CCNCC4)nc3s2)cc2cn(C)nc2c1F ?
result: > 7.00

query: So what does the record say about pIC50 for Cc1cn2nc(-c3nc4sc(C5CCNCC5)cc4s3)cc2c(C)n1 ?
result: 6.00 to 7.00

query: So what does the record say about pIC50 for Cc1cn2nc(-c3cc4cn([C@H]5CCNC[C@@H]5F)nc4s3)cc(C)c2n1 (mixture of isomers) ?
result: 5.00 to 6.00

query: So what does the record say about pIC50 for CN1CC2(C1)CN(c1cc3sc(-c4cc(F)c5nn(C)cc5c4)nc3s1)C2 ?
result: 6.00 to 7.00

query: So what does the record say about pIC50 for Cn1cc2cc(-c3nc4sc(N5CCC56CCNCC6)cc4s3)cc(F)c2n1 ?
result: < 5.00
